Assay: optical density shifts of acrAB sulA E. coli – strain DRC41, OD650, 48 h, E. coli filamentation inducer project, primary screen (AID 1152);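 note: E. coli MC1000 strain DRC41 lacking acrAB efflux pump and sulA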
Settings: higher = more signal, called active from +8 up or from −8 down
Reported Property: z-score
# print the numeric value only

Given the molecule CN(C)CCCCNC(=O)[C@@H]1C[C@@H]2C(=O)N[C@@H](CCCCN)C(=O)N2[C@@H]1c1ccc(O)cc1 , what is its reported z-score?
0.928

Given the molecule C=C(CCCC)/C(=C/C[C@H](OC(C)=O)c1ccccc1OCCO)c1cnc2ccccc2c1 , what is its reported z-score?
-0.413

Given the molecule C=CC[C@]1(C(N)=O)COC(c2ccc(OCCCO)cc2)=N1 , what is its reported z-score?
1.3

Given the molecule Cc1ccc(S[C@]2(C(=O)O)CC(=O)N(Cc3ccccc3C(F)(F)F)[C@@H]2c2ccc(CO)cc2I)cc1 , what is its reported z-score?
-1.17

Given the molecule CC(C)[Si](C#CCCCC#N)(O[C@H](c1ccccc1)c1cn(Cc2cccc(Cl)c2)nn1)C(C)C , what is its reported z-score?
1.65

Given the molecule CCCCC(=C=CC[C@@H](O)c1cccc(OCCO)c1)C[C@@H](O)c1ccccn1 , what is its reported z-score?
0.158

Given the molecule CCOC(=O)C[C@H]1[C@H](OC(=O)c2ccc(-c3ccccc3)cc2)[C@@H](NC(=O)c2ccccc2)c2cc(OCCCO)ccc2N1C(=O)Cc1ccc(OC)cc1 , what is its reported z-score?
0.118

Given the molecule CCCCC(O)C1C=CC2C(=O)N(C)C(=O)C2N1N1CCCCC1 (stereo unspecified) , what is its reported z-score?
-1.43

Given the molecule COc1ccc([C@H]2C[C@H]3C(I)=C[C@@H]2C(=O)[C@]32CO2)cc1 , what is its reported z-score?
0.794

Given the molecule COc1cc(OC)c(C(O)C2C=CC3C(=O)NC(=O)C3N2Nc2ccccn2)cc1Br (stereo unspecified) , what is its reported z-score?
-0.718

Given the molecule COc1cc2c(cc1O)C=[N+](Cc1cc3c(cc1Br)OCO3)CC2 , what is its reported z-score?
-0.167

* * *

Please respond with reported composite z-score for every item in the list.
Test system: Fibrinogen (Alexa647-labelled)
Assay: Alexa647-fibrinogen binding to printed small molecules – biochemical, small-molecule microarray, 635/667 nm fluorescence, artefact control for SMM control-protein annotation, profiling panel (AID 1131);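 note: z-score merges 667 nm fluorescence with per-spot signal-to-noise over triplicate slides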
Settings: fibrinogen-A647 binding fluorescence, higher = more signal
# print the numeric value only

Given the molecule C=CCN(Cc1ccccc1)C(=O)C(c1cccs1)N(C(=O)/C=C\C(=O)O)c1ccc(CCOCCO)cc1 (centres undefined) , what is its reported composite z-score?
-1.23

Given the molecule C=CCC(OC(C)=O)[C@@H]1[C@@H](N(Cc2ccc(-c3ccccc3)cc2)C(=O)Cc2ccc(F)cc2)c2cc(OCCCO)ccc2N1C(=O)c1ccc2ccccc2c1 (some centres undefined) , what is its reported composite z-score?
-0.163

Given the molecule OCCCC1=CC(C2CC2)N(Cc2cccc(OC(F)(F)F)c2)CC1 (centres undefined) , what is its reported composite z-score?
-2.53

Given the molecule CC(C)C(=C=CC[C@H](O)c1ccc(CO)o1)CCO , what is its reported composite z-score?
0.0411

Given the molecule COCCOC(=O)N1C(=O)[C@@]2(c3cc(C#CCCO)ccc31)[C@H](c1ccc(OCCO)cc1)N1[C@H](c3ccccc3)[C@H](c3ccccc3)OC(=O)[C@H]1[C@@H]2C(N)=O , what is its reported composite z-score?
0.837

Given the molecule O=C1O[C@@H](c2ccccc2)[C@@H](c2ccccc2)N2[C@@H](c3ccccc3OCCO)[C@]3(C(=O)Nc4ccccc43)[C@@H](C(=O)O)[C@H]12 , what is its reported composite z-score?
0.882

Given the molecule C#CCOc1ccc(C[C@@H](C(=O)OC)N(CC#C)[C@@H](/C=C/C2CC2)[C@H](O)Cc2ccccc2)cc1 , what is its reported composite z-score?
-0.651

Given the molecule CN(C)CCCCCCNC(=O)[C@@H]1C[C@@H]2C(=O)N3CCC[C@H]3C(=O)N2[C@@H]1c1ccc(O)cc1 , what is its reported composite z-score?
0.539

Given the molecule COc1ccc([Si](C)(C)[C@@H]2[C@@H](CC(=O)N3Cc4ccccc4C[C@H]3CO)O[C@]3(C(=O)N(Cc4cccc(N5CCC5=O)c4)c4ccccc43)[C@H]2C)cc1 , what is its reported composite z-score?
0.357

Given the molecule COc1ccc([Si](C)(C)[C@@H]2[C@@H](CCn3cc([C@H](O)c4ccccc4)nn3)O[C@]3(C(=O)N(Cc4cccc(N5CCC5=O)c4)c4ccccc43)[C@H]2C)cc1 , what is its reported composite z-score?
0.119

Given the molecule C=C(CCCC)/C(=C/C[C@@H](OC(C)=O)c1ccccc1OCCO)c1cc(C(=O)OC)ccc1OC , what is its reported composite z-score?
0.259

Given the molecule COCCOC(=O)N1C(=O)[C@@]2(c3ccccc31)[C@H](c1ccc(OCCO)cc1)N1[C@H](c3ccccc3)[C@H](c3ccccc3)OC(=O)[C@H]1[C@@H]2C(=O)N1CCc2cc(OC)c(OC)cc2C1 , what is its reported composite z-score?
0.958

Given the molecule Cc1ccc(S[C@]2(C(=O)NCC(C)C)CC(=O)N(Cc3cc(C(F)(F)F)cc(C(F)(F)F)c3)[C@@H]2c2ccc(CO)cc2)cc1 , what is its reported composite z-score?
-0.529

Given the molecule CCCCN1CC=CC23O[C@@H]4C=CCCOC(=O)C4[C@H]2C(=O)N(CCCCCO)[C@@H]3C1=O (some centres undefined) , what is its reported composite z-score?
-0.905

* * *

Target: Pro-neuregulin-1, membrane-bound isoform (Homo sapiens)
Test: small molecules binding neuregulin-1 protein – biochemical, small-molecule microarray, fluorescence 635/667, psychiatric disease protein project, primary screen (AID 1075);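 note: score combines 667 nm spot fluorescence with signal to noise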
Settings: NRG1 binding, 635 nm fluorescence, higher = more signal
Please respond with reported composite z-score for every item in the list.
# print the numeric value only

Given the compound O=C1NC(=O)C2C1C=CC(C(O)c1ccc(I)cc1)N2Nc1ccc(Cl)cc1Cl (stereo not drawn) , what is its reported composite z-score?
1.49

Given the compound O=C1O[C@H](c2ccccc2)[C@H](c2ccccc2)N2[C@H]1[C@@H](C(=O)N1CCN(c3ncccn3)CC1)[C@]1(C(=O)Nc3ccc(C#CC4=CCCCC4)cc31)[C@H]2c1ccccc1OCCO , what is its reported composite z-score?
0.694

Given the compound COCCCNC(=O)[C@@H]1c2ccccc2C(=O)N(Cc2ccccc2OC)[C@H]1c1ccc(CO)cc1 , what is its reported composite z-score?
1.8

* * *

Experiment: compound effects on hepatocellular carcinoma cell viability – HepG2, calcein-AM fluorescence, 48 h, basal, profiling panel (AID 1164); note: test concentration not given here
Conditions: higher = more signal
Decision: z-score compared against -0.7; not below it gives met, below it gives not met.

Does [N-]=[N+]=Nc1ccccc1C[C@]1(C(=O)NCc2ccccc2)N=C(c2ccc(OCCCO)cc2)O[C@H]1c1ccccc1N=[N+]=[N-] have a reported z-score of at least -0.7?
not met

Does O=C1C[C@@](C(=O)NCc2ccccc2)(c2ccc([N+](=O)[O-])cc2)[C@@H](c2ccc(CO)cc2)N1CC12CC3CC(CC(C3)C1)C2 have a reported z-score of at least -0.7?
met

Does [N-]=[N+]=Nc1ccccc1[C@H]1OC(c2ccc(OCCCO)cc2)=N[C@@]1(Cc1ccccc1)C(=O)N1CCOCC1 have a reported z-score of at least -0.7?
not met

Does O=C(CS)NCCCCCNC(=O)[C@@H]1C[C@@H]2C(=O)NCC(=O)N2[C@@H]1c1ccc(O)cc1 have a reported z-score of at least -0.7?
not met

Does COCC(=C=CC[C@H](O)c1cccc(OCCO)c1)CCO have a reported z-score of at least -0.7?
not met

Does CCOC(=O)C1=CC[C@@H](c2ccc(C(F)(F)F)cc2)N(S(=O)(=O)c2ccc(C)cc2)[C@H]1c1ccccc1 have a reported z-score of at least -0.7?
met

Does C=CCOC(=O)[C@H]1[C@@H]2C(=O)O[C@@H](c3ccccc3)[C@@H](c3ccccc3)N2[C@@H](c2ccc(OCCOC(=O)[C@@H]3C[C@@H]4C(=O)N5CCC[C@H]5C(=O)N4[C@@H]3c3cccc(OCCO)c3)cc2)[C@]12C(=O)Nc1ccc(I)cc12 have a reported z-score of at least -0.7?
met

Does OB1C=CCC(CCc2ccccc2)O1 (stereo not given) have a reported z-score of at least -0.7?
met

Does COc1ccc(C#Cc2ccc3c(c2)[C@]2(C(=O)N3)[C@H](c3ccc(O)cc3)N3[C@H](c4ccccc4)[C@H](c4ccccc4)OC(=O)[C@H]3[C@@H]2C(=O)N2CCc3cc(OC)c(OC)cc3C2)cc1 have a reported z-score of at least -0.7?
met

* * *

Please respond with reported composite z-score for every item in the list.
Target: Calmodulin-1 (Homo sapiens) (UniProt P0DP23)
Test: small molecules binding Ca-loaded calmodulin-1 – biochemical, small-molecule microarray, Cy5-labelled CALM1, plus calcium, artefact control for SMM control-protein annotation, profiling panel (AID 1112);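 note: score merges spot fluorescence with signal to noise from triplicate slides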
Settings: Cy5-CALM1 binding fluorescence, higher = more signal
# print the numeric value only

Given the molecule O=C1C2C=CC(C(O)COCc3ccccc3)N(Nc3ccc([N+](=O)[O-])cc3)C2C(=O)N1c1ccccc1 (stereo unspecified) , what is its reported composite z-score?
-0.432

Given the molecule COc1cc(CO)cc(I)c1O[C@H]1C=C(C(=O)NCCO)C[C@@H](N(C(=O)c2cc3ccccc3oc2=O)C2CCCCCC2)[C@@H]1O , what is its reported composite z-score?
-0.769

Given the molecule COc1ccc(NN2C(C(O)c3ccc(N(C)C)cc3)C=CC3C(=O)N(C4CCCCC4)C(=O)C32)cc1 (stereo unspecified) , what is its reported composite z-score?
0.651

Given the molecule CCN(CC)c1ccc(N2CC=CC34O[C@@H]5/C=C\CCC(C)OC(=O)C5[C@H]3C(=O)N(CCCCCO)[C@@H]4C2=O)cc1 (stereo partly specified) , what is its reported composite z-score?
0.381

Given the molecule C=CCNC(=O)[C@H]1[C@@H]2C(=O)O[C@@H](c3ccccc3)[C@@H](c3ccccc3)N2[C@@H](c2ccc(O)cc2)[C@]12C(=O)Nc1ccc(C#CCCO)cc12 , what is its reported composite z-score?
0.107

Given the molecule O=C(CS)NCCCCCNC(=O)[C@H]1C[C@H]2C(=O)NCC(=O)N2[C@H]1c1ccc(O)cc1 , what is its reported composite z-score?
-0.0879

Given the molecule CCOc1ccc(N2C(=O)CSC2c2cccc([N+](=O)[O-])c2)cc1 (stereo unspecified) , what is its reported composite z-score?
0.615

Given the molecule C#CCN1[C@H](/C=C/C2CC2)[C@H](Cc2ccccc2)OC(=O)[C@@H]1Cc1ccccc1 , what is its reported composite z-score?
-0.414

Given the molecule CS(=O)(=O)CCOC(=O)C1=CC(CCCO)=CC(C2CC2)N(Cc2cc3c(cc2Br)OCO3)C=C1C(=O)OCCS(C)(=O)=O (stereo unspecified) , what is its reported composite z-score?
-0.0113

Given the molecule O=C1[C@H]2C=C(I)[C@H](C[C@@H]2OCCCCO)[C@@]12CO2 , what is its reported composite z-score?
-0.749

Given the molecule COc1ccc([Si](C)(C)[C@@H]2[C@@H](CCO)O[C@]3(C(=O)N(Cc4cccc(N5CCOC5=O)c4)c4ccccc43)[C@H]2C)cc1 , what is its reported composite z-score?
0.924
